melting point listing for selected compounds.

compound=CC(C)(C)[Si](c1ccccc1)(c1ccccc1)c1cc(Cl)c2cccnc2c1O value_measured="133 to 139 °C"

Which melting point is listed for O=C(NC1=NC(=O)C(c2cccc(Cl)c2)S1)c1ccc2cccnc2c1O (stereo not shown) ? 268 to 272 °C (dec.)

Which melting point is listed for O=C(NCc1ccc(Cl)cc1)c1ccc2ccc(C(F)(F)F)nc2c1O ? 92 to 94 °C

Which melting point is listed for CC(C)c1ccc(S(=O)(=O)NCCCCCNC(=O)c2ccc3cccnc3c2O)cc1 ? 106 to 108 °C

Which melting point is listed for Cc1ccc2c(Cl)cc(S(=O)(=O)NCC3CCCCC3)c(O)c2n1 ? 113 to 115 °C

Which melting point is listed for CCCCCCCCNS(=O)(=O)c1cc(Cl)c2ccc(C)nc2c1O ? 85 to 100 °C

Which melting point is listed for O=C(Nc1ccc(Cl)cc1)c1cc(Br)c2cccnc2c1O ? 213 to 215 °C
